experiment: Oral exposure in cynomolgus monkeys, compound alone or with excipient in capsules; plasma by LC-MS/MS; assay type: in vivo; conditions: male, cynomolgus monkey, plasma, po, 50 mg, Table 2: oral, enteric capsule, dose 50 mg, neat
MEASURED_PROPERTY: AUC(0-inf) (ng·h/mL)
Write the number in ng·h/mL without appending the unit.

Lookup: Determine from records and report AUC(0-inf) for C[C@H](Nc1cc(Cl)nc2c1cnn2[C@@H]1O[C@H](COP(=O)(O)CP(=O)(O)O)[C@@H](O)[C@H]1O)c1ccccc1F [Ia (•3Na)]
Found: 13400

---

assay: Oral exposure in cynomolgus monkeys, compound alone or with excipient in capsules; plasma by LC-MS/MS; assay type: in vivo; conditions: male, cynomolgus monkey, plasma, po, 50 mg, Table 2: oral, enteric capsule, dose 50 mg, neat
MEASURED_PROPERTY: AUC(0-t) (ng·h/mL)
Express it in ng·h/mL; write the number only.

Lookup: Provide AUC(0-t) value for the following compound: C[C@H](Nc1cc(Cl)nc2c1cnn2[C@@H]1O[C@H](COP(=O)(O)CP(=O)(O)O)[C@@H](O)[C@H]1O)c1ccccc1F
Found: 10300

---

assay: Oral exposure in cynomolgus monkeys, compound alone or with excipient in capsules; plasma by LC-MS/MS; format: in vivo; settings: male, cynomolgus monkey, plasma, po, 50 mg, oral, enteric capsule, dose 50 mg, neat, fasted; read-out: Cmax
MEASURED_PROPERTY: Cmax (ng/mL)
Could you give me the number in ng/mL? Just the number is fine.

Lookup: Please look at this compound and report its Cmax: C[C@H](Nc1cc(Cl)nc2c1cnn2[C@@H]1O[C@H](COP(=O)(O)CP(=O)(O)O)[C@@H](O)[C@H]1O)c1ccccc1F
Found: 631

---

experiment: Oral exposure in cynomolgus monkeys, compound alone or with excipient in capsules; plasma by LC-MS/MS; assay type: in vivo; settings: male, cynomolgus monkey, plasma, po, 50 mg, Table 2: oral, enteric capsule, dose 50 mg, neat
MEASURED_PROPERTY: Tmax (h)
The figure you give is taken to be in h; do not add the unit.

Lookup: Give the value of Tmax reported for the following: C[C@H](Nc1cc(Cl)nc2c1cnn2[C@@H]1O[C@H](COP(=O)(O)CP(=O)(O)O)[C@@H](O)[C@H]1O)c1ccccc1F
Found: 1.75

---

experiment: Oral exposure in cynomolgus monkeys, compound alone or with excipient in capsules; plasma by LC-MS/MS; type: in vivo; conditions: male, cynomolgus monkey, plasma, po, 50 mg, oral, enteric capsule, dose 50 mg, with 50 mg sodium phytate (Sigma-Aldrich), fasted; read-out: Cmax
MEASURED_PROPERTY: Cmax (µg/mL)
A number alone suffices; assume µg/mL.

Lookup: Given C[C@H](Nc1cc(Cl)nc2c1cnn2[C@@H]1O[C@H](COP(=O)(O)CP(=O)(O)O)[C@@H](O)[C@H]1O)c1ccccc1F [Ia (•3Na)] , respond with its Cmax.
Found: 1.65

---

test: Oral exposure in cynomolgus monkeys, compound alone or with excipient in capsules; plasma by LC-MS/MS; type: in vivo; conditions: male, cynomolgus monkey, plasma, po, 50 mg, Table 3: dose 50 mg, dosed with 195 mg trisodium citrate and 3 mg SDS, enteric capsules
# AUC(0-inf) listing for each entry below
// note: answer is a bare numeric in ng·h/mL

Example entries begin here.
> print(dat)
                                   molecule  measured.value
1  C[C@H](Nc1nc(Cl)nc2c1cnn2[C@@H]1O[C@H](COP(=O)(O)CP(=O)(O)O)[C@@H](O)[C@H]1O)c1ccccc1 [Compound 2]           67100
2  C[C@H](Nc1cc(Cl)nc2c1cnn2[C@@H]1O[C@H](COP(=O)(O)CP(=O)(O)O)[C@@H](O)[C@H]1O)c1ccccc1F [Compound (Ia)]           22200

We now examine a further molecule.
Lookup: Name the recorded AUC(0-inf) of the item C[C@H](Nc1cc(Cl)nc2c1cnn2[C@@H]1O[C@H](COP(=O)(O)CP(=O)(O)O)[C@@H](O)[C@H]1O)c1ccc(F)cc1 [Compound 3] in your answer.
Found: 38700

---

experiment: Oral exposure in cynomolgus monkeys, compound alone or with excipient in capsules; plasma by LC-MS/MS; assay type: in vivo; settings: male, cynomolgus monkey, plasma, po, 50 mg, enteric capsule, with 275 mg sodium phytate, dodecasodium, fasted
MEASURED_PROPERTY: AUC(0-inf) (ng·h/mL)
Note: unit ng·h/mL is implicit; provide only the numeric part.

Lookup: Return reported AUC(0-inf). Input compound: C[C@H](Nc1cc(Cl)nc2c1cnn2[C@@H]1O[C@H](COP(=O)(O)CP(=O)(O)O)[C@@H](O)[C@H]1O)c1ccccc1F [Ia (•3Na)]
Found: 69400

---

assay: Oral exposure in cynomolgus monkeys, compound alone or with excipient in capsules; plasma by LC-MS/MS; format: in vivo; conditions: male, cynomolgus monkey, plasma, po, 50 mg, Table 2: oral, enteric capsule, dose 50 mg, + 275 mg sodium phytate
MEASURED_PROPERTY: AUC(0-t) (ng·h/mL)
Could you give me the number in ng·h/mL? Just the number is fine.

Lookup: Read off the recorded AUC(0-t) for C[C@H](Nc1cc(Cl)nc2c1cnn2[C@@H]1O[C@H](COP(=O)(O)CP(=O)(O)O)[C@@H](O)[C@H]1O)c1ccccc1F
Found: 88000

---

assay: Oral exposure in cynomolgus monkeys, compound alone or with excipient in capsules; plasma by LC-MS/MS; format: in vivo; details: male, cynomolgus monkey, plasma, po, 10 mg, enteric capsule, with 195 mg sodium citrate, 6 mg SDS, fasted
MEASURED_PROPERTY: AUC(0-inf)

Lookup: In one line, give reported AUC(0-inf) of the entry C[C@H](Nc1cc(Cl)nc2c1cnn2[C@@H]1O[C@H](COP(=O)(O)CP(=O)(O)O)[C@@H](O)[C@H]1O)c1ccccc1F .
Found: 1940 ng·h/mL

---

test: Oral exposure in cynomolgus monkeys, compound alone or with excipient in capsules; plasma by LC-MS/MS; format: in vivo; settings: male, cynomolgus monkey, plasma, po, 50 mg, Table 2: oral, enteric capsule, dose 50 mg, neat; read-out: MRT0-∞
MEASURED_PROPERTY: MRT inf (h)
Answer format: numeric, h implied, no suffix.

Lookup: Return the recorded MRT inf value; entry: C[C@H](Nc1cc(Cl)nc2c1cnn2[C@@H]1O[C@H](COP(=O)(O)CP(=O)(O)O)[C@@H](O)[C@H]1O)c1ccccc1F [Ia (•3Na)]
Found: 29.2

---

Test: Oral exposure in cynomolgus monkeys, compound alone or with excipient in capsules; plasma by LC-MS/MS
Type: in vivo
Details: male, cynomolgus monkey, plasma, po, 100 mg, enteric capsule, with 275 mg sodium phytate (Sigma-Aldrich), fasted
Text: The influence of different excipients on the bioavailability of Compound (Ia), Compound 2 and Compound 3 in cynomolgus monkeys was investigated. […] Generally, an appropriate quantity (as indicated in Table 1) of Compound (Ia), Compound 2 or Compound 3 and an excipient were mixed to homogeneity and transferred to capsules for dosing. […]
MEASURED_PROPERTY: AUC(0-inf) (µg·h/mL)
Give the number; µg·h/mL is assumed, so skip it.

Lookup: Provide AUC(0-inf) value for the following compound: C[C@H](Nc1cc(Cl)nc2c1cnn2[C@@H]1O[C@H](COP(=O)(O)CP(=O)(O)O)[C@@H](O)[C@H]1O)c1ccccc1F [Ia (•3Na)]
Found: 237

---

assay: Oral exposure in cynomolgus monkeys, compound alone or with excipient in capsules; plasma by LC-MS/MS; format: in vivo; settings: male, cynomolgus monkey, plasma, po, 50 mg, enteric capsule, with 195 mg sodium citrate, 6 mg SDS, non-fasted animal
MEASURED_PROPERTY: AUC(0-inf) (ng·h/mL)
Your answer is read as ng·h/mL, so omit the unit and give the number.

Lookup: Supply recorded AUC(0-inf) for C[C@H](Nc1cc(Cl)nc2c1cnn2[C@@H]1O[C@H](COP(=O)(O)CP(=O)(O)O)[C@@H](O)[C@H]1O)c1ccccc1F here.
Found: 16500

---

Test: Oral exposure in cynomolgus monkeys, compound alone or with excipient in capsules; plasma by LC-MS/MS
Format: in vivo
Details: male, cynomolgus monkey, plasma, po, 50 mg, Table 2: oral, enteric capsule, dose 50 mg, + 275 mg sodium phytate; read-out: MRT0-∞
Excerpt: The influence of different excipients on the bioavailability of Compound (Ia), Compound 2 and Compound 3 in cynomolgus monkeys was investigated. […] Generally, an appropriate quantity (as indicated in Table 1) of Compound (Ia), Compound 2 or Compound 3 and an excipient were mixed to homogeneity and transferred to capsules for dosing. […]
MEASURED_PROPERTY: MRT inf (h)
Reply with just the number (in h).

Lookup: Using the record for C[C@H](Nc1cc(Cl)nc2c1cnn2[C@@H]1O[C@H](COP(=O)(O)CP(=O)(O)O)[C@@H](O)[C@H]1O)c1ccccc1F , state its measured MRT inf.
Found: 35.8
